- assayProcedure: Total clearance in mouse at 20 mg/kg, iv administered with 10 mg/kg cilastatin
- Assay type: ADME, organism-based
- experimentalContext: in vivo
propertyName: clearance (L/h/kg)
Unit L/h/kg implied. Number only.

Q. Return reported clearance; argument: `CSc1c2sc(C3=C(C(=O)[O-])N4C(=O)[C@H]([C@@H](C)O)[C@H]4[C@H]3C)cn2c[n+]1C[C@H](O)CN`
A. 1.61
